These entries and their values trace back to patent US20260242478A1.

For each of the binders below, state its Anti-PSMA Fab (SEQ ID NOs: 19, 20) signal.
- targetUnderTest: T1, Anti-PSMA Fab (SEQ ID NOs: 19, 20)
- T1 construct: Biotinylated and captured on neutravidin coated plates in the phage ELISA; also called 006 PSMA Fab
- assayExplanation: phage binding ELISA; biotinylated Fab on neutravidin plate, anti-M13 HRP detection
Number only, no unit.

[in] For the binder GEIWCIPAWMCNTG (Clonal phage of the peptide-180 library, tested as crude phage supernatant; not shown: fused to pIII of the bacteriophage) [Phage-2200] , what Anti-PSMA Fab (SEQ ID NOs: 19, 20) signal is on record?
[out] 1.62

[in] And then HDKWCIPEWMCISL (Clonal phage of the peptide-180 library, tested as crude phage supernatant; not shown: fused to pIII of the bacteriophage) [Phage-2202] , what is it?
[out] 1.62

[in] And then VEKWCIPSWMCQEL (Clonal phage of the peptide-180 library, tested as crude phage supernatant; not shown: fused to pIII of the bacteriophage) [Phage-2199] , what is it?
[out] 1.62

[in] And then MTPWCKPAWMCQGI (Clonal phage of the peptide-180 library, tested as crude phage supernatant; not shown: fused to pIII of the bacteriophage) [Phage-2192] , what is it?
[out] 1.63

[in] And then ESHLCIPAWMCDVQ (Clonal phage of the peptide-180 library, tested as crude phage supernatant; not shown: fused to pIII of the bacteriophage) [Phage-2193] , what is it?
[out] 1.63

[in] And then LADWCRPVWMCEGF (Clonal phage of the peptide-180 library, tested as crude phage supernatant; not shown: fused to pIII of the bacteriophage) [Phage-2196] , what is it?
[out] 1.62

[in] And then DLKLCKPEWMCNGM (Clonal phage of the peptide-180 library, tested as crude phage supernatant; not shown: fused to pIII of the bacteriophage) [Phage-2204] , what is it?
[out] 1.61

[in] And then EYNWCTPRWMCKGF (Clonal phage of the peptide-180 library, tested as crude phage supernatant; not shown: fused to pIII of the bacteriophage) [Phage-2201] , what is it?
[out] 1.62
